# PROTOCOL: Pharmacokinetics, central blood values after IV dose
# Assay type: in vivo
# COND: human, corresponds to first time constant 0.3
ENDPOINT_LABEL: half-life

Lookup: For O=S1(=O)CCN(CN2CCS(=O)(=O)NC2)CN1 , what is its reported half-life?
Found: ~2.3 h
